# Experimental System: Cathepsin B (Homo sapiens, UniProt P07858)
# Protocol: Inhibition of human cathepsin B
Test Readout: pKi
# reply with the number alone; pKi is -log10 of concentration in mol/L

Molecule	pKi
CCCNC(=O)C(=O)C(Cc1ccccc1)NC(=O)C(CC(C)C)NC(=O)OCc1ccccc1 (centres undefined)	5.52
CCC(NC(=O)C(CC(C)C)NC(=O)OCc1ccccc1)C(=O)C(=O)NCCCN1CCc2ccccc2C1 (centres undefined)	5.10

(Q) Please give the measured pKi for this molecule: CCC(NC(=O)C(CC(C)C)NC(=O)OCc1ccccc1)C(=O)C(=O)NCCCc1ccccc1 (centres undefined)
(A) 6.70

(Q) Please give the measured pKi for this molecule: CC(C)CC(NC(=O)OCc1ccccc1)C(=O)NC(Cc1ccccc1)C(=O)C(=O)NCCCN1CCc2ccccc2C1 (centres undefined)
(A) 5.35

* * *

In this section, each of the compounds is paired with its reported Ki.
# Experimental System: Cathepsin B (Bos taurus)
Put down the number, then write its unit next to it.

(Q) Please give the measured Ki for this compound: CCC(NC(=O)C(CC(C)C)NC(=O)OCc1ccccc1)C(=O)C(=O)NCC(O)c1c(F)c(F)c(F)c(F)c1F (centres undefined)
(A) 150 nM

(Q) Please give the measured Ki for this compound: CCNC(=O)C(=O)C(CC)NC(=O)C(CC(C)C)NC(=O)C(c1ccccc1)c1ccccc1 (centres undefined)
(A) 550 nM

(Q) Please give the measured Ki for this compound: CC(C)CC(NC(=O)OCc1ccccc1)C(=O)NC(Cc1ccccc1)C(=O)C(=O)NCCNC(=O)CCCC[C@@H]1SC[C@@H]2NC(=O)N[C@@H]21 (some centres undefined)
(A) 230 nM

(Q) Please give the measured Ki for this compound: CC(C)CC(NC(=O)OCc1ccccc1)C(=O)NC(Cc1ccccc1)C(=O)C(=O)NCC(O)c1ccc(N(C)C)cc1 (centres undefined)
(A) 310 nM

* * *

# Experimental System: Calpain-1 catalytic subunit (Homo sapiens, UniProt P07384)
# Sequence (P07384 whole entry): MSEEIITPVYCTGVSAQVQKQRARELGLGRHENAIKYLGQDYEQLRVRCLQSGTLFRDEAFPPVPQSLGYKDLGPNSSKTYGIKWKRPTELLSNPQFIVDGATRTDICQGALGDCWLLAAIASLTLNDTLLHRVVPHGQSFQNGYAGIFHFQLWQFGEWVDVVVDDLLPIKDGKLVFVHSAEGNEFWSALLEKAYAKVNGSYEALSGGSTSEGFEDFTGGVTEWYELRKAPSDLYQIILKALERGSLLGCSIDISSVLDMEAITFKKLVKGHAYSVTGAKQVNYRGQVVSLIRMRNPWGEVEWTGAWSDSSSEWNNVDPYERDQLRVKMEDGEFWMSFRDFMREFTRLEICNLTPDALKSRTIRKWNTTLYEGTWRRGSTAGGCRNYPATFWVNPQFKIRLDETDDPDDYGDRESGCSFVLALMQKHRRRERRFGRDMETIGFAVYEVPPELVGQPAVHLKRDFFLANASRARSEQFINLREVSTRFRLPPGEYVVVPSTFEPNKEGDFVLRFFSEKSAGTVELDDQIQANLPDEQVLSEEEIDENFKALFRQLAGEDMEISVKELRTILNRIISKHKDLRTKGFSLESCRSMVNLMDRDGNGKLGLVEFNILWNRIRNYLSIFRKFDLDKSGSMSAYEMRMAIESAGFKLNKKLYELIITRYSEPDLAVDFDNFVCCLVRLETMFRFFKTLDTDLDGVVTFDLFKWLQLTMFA
# Protocol: Inhibition of the cysteine protease human Calpain 1
In this section, each of the molecules is paired with its reported pKi.
# reply with the number alone; pKi is -log10 of concentration in mol/L

(Q) Please give the measured pKi for this molecule: CCC(NC(=O)C(CC(C)C)NC(=O)OCc1ccccc1)C(=O)C(=O)NC (centres undefined)
(A) 6.55

(Q) Please give the measured pKi for this molecule: CC(C)CC(NC(=O)OCc1ccccc1)C(=O)NC(Cc1ccccc1)C(=O)C(=O)NCC(O)c1ccccc1 (centres undefined)
(A) 5.89

(Q) Please give the measured pKi for this molecule: CC(C)CC(NC(=O)OCc1ccccc1)C(=O)NC(Cc1ccccc1)C(=O)C(=O)NCc1ccc2ccccc2n1 (centres undefined)
(A) 6.96

* * *

# Experimental System: Cathepsin B (Homo sapiens)
# Protocol: Compound was evaluated for the inhibition of Cathepsin B
Test Readout: pKi
# reply with the number alone; pKi is -log10 of concentration in mol/L

Compound	Test Readout	Result Value
CC(C)CC(NC(=O)OCc1ccccc1)C(=O)NC(Cc1ccccc1)C(=O)C(=O)NCCc1ccccc1 (configuration not stated)	pKi	5.03

Consider the record given below.
(Q) Please give the measured pKi for this compound: CC(C)CC(NC(=O)OCc1ccccc1)C(=O)NC(Cc1ccccc1)C(=O)C(=O)NCc1ccccc1 (configuration not stated)
(A) 5.34

* * *

# Experimental System: Cathepsin B (Homo sapiens, UniProt P07858)
# Protocol: Inhibition of human cathepsin B
In this section, each of the compounds is paired with its reported pKi.
# reply with the number alone; pKi is -log10 of concentration in mol/L

In the examples that follow, each entry is paired with its recorded pKi.
Compound	Test Readout	Result Value
CCNC(=O)C(=O)C(CC)NC(=O)C(CC(C)C)NC(=O)Cc1cccc2ccccc12 (stereo not drawn)	pKi	6.46
CCCC(NC(=O)C(CC(C)C)NC(=O)OCc1ccccc1)C(=O)C(=O)NCc1ccccn1 (stereo not drawn)	pKi	6.12
CCC(NC(=O)C(CC(C)C)NC(=O)OCc1ccccc1)C(=O)C(=O)NCCc1ccc(OC)cc1 (stereo not drawn)	pKi	6.36

Consider the record given below.
(Q) Please give the measured pKi for this compound: CCC(NC(=O)C(CC(C)C)NC(=O)C(c1ccccc1)c1ccccc1)C(=O)C(=O)NCCCN1CCOCC1 (stereo not drawn)
(A) 5.64
